Measured values drawn from patent US20250339409A1 for this set.

Assay: Solubility of BETi1 in water (HPLC) and in solvents (visual observation)
Format: physicochemical
Conditions: organic solvent or mixture, thermodynamic from solid; Acetone; 25° C.; visual observation; read-out: Approximate solubility
assay_endpoint: solubility
Kindly format the answer as number then unit.

Request: Record request: solubility value, item `Cn1cc(-c2cccc(O)c2Oc2ccccc2)c2cc[nH]c2c1=O`
Result: 15 mg/mL

---

System: anti collagen antibodies induced arthritis (ACAIA)
Test: Anti collagen antibodies induced arthritis (ACAIA) in mice, intra-articular treatment: paw thickness, arthritis clinical score, body weight
Conditions: BETi1 1 mg/kg IA (Group 3); Av
assay_endpoint: Weight per day, Day 7 (g)
// units = g; emit number, no label

Request: Record request: Weight per day, Day 7 value, item `Cn1cc(-c2cccc(O)c2Oc2ccccc2)c2cc[nH]c2c1=O`
Result: 18.6

---

Experiment: Solubility of BETi1 in water (HPLC) and in solvents (visual observation)
Type: physicochemical
Conditions: organic solvent or mixture, thermodynamic from solid; Methanol; 25° C.; visual observation; read-out: Approximate solubility
Description: The resulting sample, still containing solid BETi1, was filtered and analyzed by HPLC for assay of BETi1 in solution. Solubility of BETi in water was determined to be about 0.005 mg/gram or 0.5 mg/100 mL water (1 ml=1 g) using HPLC (Table 41A). To characterize the solubility of BETi in other solvents, about 5 mg of BETi1 was weighed into a 2 ml glass vial. […] Approximate solubility was determined by visual observation and reported in […]
assay_endpoint: solubility (mg/mL)
// units = mg/mL; emit number, no label

Request: Record request: solubility value, item `Cn1cc(-c2cccc(O)c2Oc2ccccc2)c2cc[nH]c2c1=O`
Result: 21

---

Test system: anti collagen antibodies induced arthritis (ACAIA)
Assay: Anti collagen antibodies induced arthritis (ACAIA) in mice, intra-articular treatment: paw thickness, arthritis clinical score, body weight
Settings: BETi1 0.01 mg/kg IA (Group 5); Av
assay_endpoint: Weight per day, Baseline (g)
// units = g; emit number, no label

Request: Record request: Weight per day, Baseline value, item Cn1cc(-c2cccc(O)c2Oc2ccccc2)c2cc[nH]c2c1=O [BETi1]
Result: 20.6

---

Assay: Toxicokinetics in dogs after intra-articular injection: synovial fluid concentrations
Format: in vivo, Beagle dogs
Conditions: Beagle, dog, synovial fluid; 150 mg/animal; Male; Study Day 1; read-out: Synovia Tmax
assay_endpoint: Tmax (h)
// units = h; emit number, no label

Request: Record request: Tmax value, item Cn1cc(-c2cccc(O)c2Oc2ccccc2)c2cc[nH]c2c1=O [BETi1]
Result: 120

---

Tested on: anti collagen antibodies induced arthritis (ACAIA)
Test: Anti collagen antibodies induced arthritis (ACAIA) in mice, intra-articular treatment: paw thickness, arthritis clinical score, body weight
Details: Dexamethasone 1 mg/kg IA (Group 7); Av
assay_endpoint: Weight per day, Day 6
Kindly format the answer as number then unit.

Request: Record request: Weight per day, Day 6 value, item C[C@@H]1C[C@H]2[C@@H]3CCC4=CC(=O)C=C[C@]4(C)[C@@]3(F)[C@@H](O)C[C@]2(C)[C@@]1(O)C(=O)CO [dexamethasone, Dexamethasone, reference compound]
Result: 17.5 g

---

Test system: anti collagen antibodies induced arthritis (ACAIA)
Experiment: Anti collagen antibodies induced arthritis (ACAIA) in mice, intra-articular treatment: paw thickness, arthritis clinical score, body weight
Settings: Dexamethasone 1 mg/kg IA (Group 7); Av
assay_endpoint: Weight per day, Day 7 (g)
// units = g; emit number, no label

Request: Record request: Weight per day, Day 7 value, item C[C@@H]1C[C@H]2[C@@H]3CCC4=CC(=O)C=C[C@]4(C)[C@@]3(F)[C@@H](O)C[C@]2(C)[C@@]1(O)C(=O)CO [dexamethasone, Dexamethasone, reference compound]
Result: 17.4

---

Assay: Toxicokinetics in dogs after intra-articular injection: synovial fluid concentrations
Type: in vivo, Beagle dogs
Conditions: Beagle, dog, synovial fluid; 75 mg/animal; Female; Study Day 1; read-out: Synovia AUC0-672 h
Procedure: 16 Beagle dogs (8 males, 8 females) were assigned to four treatment groups to determine toxicity of BETi1 formulations following intra-articular injection. […] Quantification of BETi1 concentrations in plasma and synovial fluid was performed using a qualified liquid chromatographic triple quadrupole mass spectrometric (LC-MS/MS) method. […]
assay_endpoint: AUC(0-t) (µg·h/mL)
// units = µg·h/mL; emit number, no label

Request: Record request: AUC(0-t) value, item `Cn1cc(-c2cccc(O)c2Oc2ccccc2)c2cc[nH]c2c1=O`
Result: 6090

---

Assay: Solubility of BETi1 in water (HPLC) and in solvents (visual observation)
Assay type: physicochemical
Conditions: organic solvent or mixture, thermodynamic from solid; Ethanol; 25° C.; visual observation; read-out: Approximate solubility
assay_endpoint: solubility (mg/mL)
// units = mg/mL; emit number, no label

Request: Record request: solubility value, item Cn1cc(-c2cccc(O)c2Oc2ccccc2)c2cc[nH]c2c1=O [BETi1]
Result: 12

---

Assay: Toxicokinetics in dogs after intra-articular injection: plasma concentrations
Type: in vivo, Beagle dogs
Conditions: Beagle, dog, plasma; 150 mg/animal; Female; Study Day 1; read-out: Plasma Tmax
assay_endpoint: Tmax (h)
// units = h; emit number, no label

Request: Record request: Tmax value, item Cn1cc(-c2cccc(O)c2Oc2ccccc2)c2cc[nH]c2c1=O [BETi1]
Result: 5

---

Tested on: anti collagen antibodies induced arthritis (ACAIA)
Test: Anti collagen antibodies induced arthritis (ACAIA) in mice, intra-articular treatment: paw thickness, arthritis clinical score, body weight
Conditions: BETi1 10 mg/kg IA (Group 2); Av
assay_endpoint: Weight per day, Day 10

Request: Record request: Weight per day, Day 10 value, item `Cn1cc(-c2cccc(O)c2Oc2ccccc2)c2cc[nH]c2c1=O`
Result: 19.4 g

---

System: anti collagen antibodies induced arthritis (ACAIA)
Assay: Anti collagen antibodies induced arthritis (ACAIA) in mice, intra-articular treatment: paw thickness, arthritis clinical score, body weight
Conditions: BETi1 1 mg/kg IA (Group 3); Av
assay_endpoint: Weight per day, Baseline
Kindly format the answer as number then unit.

Request: Record request: Weight per day, Baseline value, item Cn1cc(-c2cccc(O)c2Oc2ccccc2)c2cc[nH]c2c1=O [BETi1]
Result: 20.7 g

---

Test system: anti collagen antibodies induced arthritis (ACAIA)
Assay: Anti collagen antibodies induced arthritis (ACAIA) in mice, intra-articular treatment: paw thickness, arthritis clinical score, body weight
Conditions: Dexamethasone 1 mg/kg IA (Group 7); Av
assay_endpoint: Weight per day, Day 3
Kindly format the answer as number then unit.

Request: Checklist item: Weight per day, Day 3 tested on anti collagen antibodies induced arthritis (ACAIA), entry C[C@@H]1C[C@H]2[C@@H]3CCC4=CC(=O)C=C[C@]4(C)[C@@]3(F)[C@@H](O)C[C@]2(C)[C@@]1(O)C(=O)CO [dexamethasone, Dexamethasone, reference compound] , value?
Result: 19.5 g

---

Assay: Toxicokinetics in dogs after intra-articular injection: synovial fluid concentrations
Type: in vivo, Beagle dogs
Settings: Beagle, dog, synovial fluid; 75 mg/animal; Male; Study Day 1; read-out: Synovia Tmax
assay_endpoint: Tmax (h)
// units = h; emit number, no label

Request: Record request: Tmax value, item `Cn1cc(-c2cccc(O)c2Oc2ccccc2)c2cc[nH]c2c1=O`
Result: 120

---

System: anti collagen antibodies induced arthritis (ACAIA)
Experiment: Anti collagen antibodies induced arthritis (ACAIA) in mice, intra-articular treatment: paw thickness, arthritis clinical score, body weight
Details: BETi1 1 mg/kg IA (Group 3); Av
assay_endpoint: Weight per day, Day 8 (g)
// units = g; emit number, no label

Request: Record request: Weight per day, Day 8 value, item Cn1cc(-c2cccc(O)c2Oc2ccccc2)c2cc[nH]c2c1=O [BETi1]
Result: 18.9

---

System: anti collagen antibodies induced arthritis (ACAIA)
Experiment: Anti collagen antibodies induced arthritis (ACAIA) in mice, intra-articular treatment: paw thickness, arthritis clinical score, body weight
Details: BETi1 10 mg/kg IA (Group 2); Av
assay_endpoint: Weight per day, Day 7 (g)
// units = g; emit number, no label

Request: Record request: Weight per day, Day 7 value, item `Cn1cc(-c2cccc(O)c2Oc2ccccc2)c2cc[nH]c2c1=O`
Result: 19.5

---

Tested on: anti collagen antibodies induced arthritis (ACAIA)
Assay: Anti collagen antibodies induced arthritis (ACAIA) in mice, intra-articular treatment: paw thickness, arthritis clinical score, body weight;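 also: mouse arthritis induced by IV anti-collagen mAb on day 0 plus IP LPS on day 4, with body weight, caliper paw thickness and 0-4 paw score tracked against a day 0 baseline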
Settings: BETi1 0.01 mg/kg IA (Group 5); Av
assay_endpoint: Weight per day, Day 4 (g)
// units = g; emit number, no label

Request: Record request: Weight per day, Day 4 value, item `Cn1cc(-c2cccc(O)c2Oc2ccccc2)c2cc[nH]c2c1=O`
Result: 19.9

---

Experiment: Toxicokinetics in dogs after intra-articular injection: plasma concentrations
Type: in vivo, Beagle dogs
Conditions: both sexes, Beagle, dog, plasma, other: intra-articular injection, 7.5 mg/animal; 7.5 mg intra-articular; 2 h; read-out: Plasma concentration of BETi1
assay_endpoint: concentration at 2 h (µg/mL)
// units = µg/mL; emit number, no label

Request: Record request: concentration at 2 h value, item `Cn1cc(-c2cccc(O)c2Oc2ccccc2)c2cc[nH]c2c1=O`
Result: 0.0326
